Measured viability values are reported for all entries that follow.
Assay: HUVEC growth inhibition – cell-based, human, primary screen (AID 575);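 also: 100% = median of untreated cell wells with 0.1% DMSO on each plate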
Settings: HUVEC proliferation, CellTiter-Glo luminescence, 72 h; at 10 µM; stronger effect = lower value
Record the value in %, omitting the unit from your answer.

>>> observed("O=C(Nc1ccc2c(c1)OCO2)C(c1ccc(Cl)cc1)N1CCN(C(=O)c2ccco2)CC1 (stereo not drawn)")
103

Looking for the measured viability of COc1cc(OC)cc(C(=O)NCCN2CCOCC2)c1 , can you help?
98.3

Quick one: viability for CC(C)(C)OC(=O)NCCc1nnc(SCC(=O)c2ccc(Cl)cc2)o1 ?
93.1

Name the recorded viability for O=c1c2cc(N3CCOCC3)ccc2[nH]c(=S)n1CCCN1CCCC1 .
86

Given the entry O=C(O)C1CC(=O)N(Cc2ccccc2)C1 (stereo not drawn) , report its measured viability.
91.2

Given the entry O=S(=O)(Nc1ccn(-c2ccccc2)n1)c1ccc(Br)cc1 , report its measured viability.
85.7

What value of viability has been reported for the following molecule? CCOC(=O)c1ccc2[nH]c(C)c(CN3CCN(C)CC3)c(=O)c2c1
97.9
